Recorded values, source patent EP4471048A1.

experiment: Peptide stability in simulated gastric fluid (SGF); assay type: in vitro ADME; conditions: pig, simulated gastric fluid (SGF) with porcine pepsin (3.2 g/L), pH 1.2, 10 µM, 37 °C, porcine pepsin, pH 1.2, 1 h; read-out: SGF (% remaining 1 h)
Attribute: remaining at 1 h, 10 µM
// note: answer is a bare numeric in %

Example cases with answers are listed next.
Lookup result for `CC[C@H](C)[C@@H]1NC(=O)[C@@H]2CCCCNC(=O)CC[C@@H](C(=O)NCC(=O)N[C@H](Cc3cccnc3)C(N)=O)NC(=O)[C@](C)(C(C)C)NC(=O)[C@H](Cc3ccc4ccccc4c3)NC(=O)[C@H](Cc3ccc(C)cc3)NC(=O)[C@H](CCC(=O)N2)NC(=O)[C@H](CCC(N)=O)NC(=O)[C@H](Cc2c[nH]c3ccccc23)NC(=O)[C@H](C(C)C)NC1=O` ; measured remaining at 1 h, 10 µM: 78

Lookup result for `CC[C@H](C)[C@H]1CC(=O)N[C@@H](Cc2c[nH]c3ccccc23)C(=O)N[C@@H](CCC(N)=O)C(=O)N[C@H]2CCC(=O)N[C@@H](CCCCNC(=O)CC[C@@H](C(=O)N[C@@H](CCN)C(=O)N[C@@H](Cc3cccnc3)C(=O)NC)NC(=O)[C@](C)(CC(C)C)NC(=O)[C@H](Cc3ccc4ccccc4c3)NC(=O)[C@H](Cc3ccc(OCCN)cc3)NC2=O)C(=O)N1` ; measured remaining at 1 h, 10 µM: 105

Lookup result for `CC[C@H](C)[C@@H]1NC(=O)[C@@H]2CCCCNC(=O)CC[C@@H](C(=O)N[C@@H](CCN)C(=O)N[C@@H](Cc3cccnc3)C(=O)NC)NC(=O)[C@](C)(CC(C)C)NC(=O)[C@H](Cc3ccc4ccccc4c3)NC(=O)[C@H](Cc3ccc(OCCN)cc3)NC(=O)[C@H](CCC(=O)N2C)NC(=O)[C@H](CCC(N)=O)NC(=O)[C@H](Cc2c[nH]c3ccccc23)NC(=O)[C@H](C(C)C)NC1=O` ; measured remaining at 1 h, 10 µM: 102

Lookup result for `CC[C@H](C)[C@@H]1NC(=O)[C@@H]2CCCCNC(=O)CC[C@@H](C(=O)N[C@H](Cc3cnc[nH]3)C(=O)N[C@@H](Cc3cccnc3)C(=O)NC)NC(=O)[C@](C)(CC(C)C)NC(=O)[C@H](Cc3ccc4ccccc4c3)NC(=O)[C@H](Cc3ccc(OCCN)cc3)NC(=O)[C@H](CCC(=O)N2)NC(=O)[C@H](CCC(N)=O)NC(=O)[C@H](Cc2c[nH]c3ccccc23)NC(=O)[C@H](C(C)C)NC1=O` ; measured remaining at 1 h, 10 µM: 102

Lookup result for `CNC(=O)[C@H](Cc1cccnc1)NC(=O)[C@H](CCN)NC(=O)[C@@H]1CCC(=O)NCCCC[C@@H]2NC(=O)CC[C@H](NC(=O)[C@H](CCC(N)=O)NC(=O)[C@H](Cc3c[nH]c4ccccc34)NC(=O)CCNC2=O)C(=O)N[C@@H](Cc2ccc(OCCN)cc2)C(=O)N[C@@H](Cc2ccc3ccccc3c2)C(=O)N[C@@](C)(CC(C)C)C(=O)N1` ; measured remaining at 1 h, 10 µM: 98

Now look at this one.
Lookup result for `CC[C@H](C)[C@@H]1NC(=O)[C@@H]2CCCCNC(=O)CC[C@@H](C(=O)N[C@@H](Cc3cnc[nH]3)C(=O)N[C@@H](Cc3cccnc3)C(=O)NC)NC(=O)[C@](C)(CC(C)C)NC(=O)[C@H](Cc3ccc4ccccc4c3)NC(=O)[C@H](Cc3ccc(OCCN)cc3)NC(=O)[C@H](CCC(=O)N2)NC(=O)[C@H](CCC(N)=O)NC(=O)[C@H](Cc2c[nH]c3ccccc23)NC(=O)[C@H](C(C)C)NC1=O` ; measured remaining at 1 h, 10 µM: 112
